- Target Desc: human orexin 1 receptor (Homo sapiens)
- Construct: expressed in transfected cells
- Sequence (O43613 whole entry): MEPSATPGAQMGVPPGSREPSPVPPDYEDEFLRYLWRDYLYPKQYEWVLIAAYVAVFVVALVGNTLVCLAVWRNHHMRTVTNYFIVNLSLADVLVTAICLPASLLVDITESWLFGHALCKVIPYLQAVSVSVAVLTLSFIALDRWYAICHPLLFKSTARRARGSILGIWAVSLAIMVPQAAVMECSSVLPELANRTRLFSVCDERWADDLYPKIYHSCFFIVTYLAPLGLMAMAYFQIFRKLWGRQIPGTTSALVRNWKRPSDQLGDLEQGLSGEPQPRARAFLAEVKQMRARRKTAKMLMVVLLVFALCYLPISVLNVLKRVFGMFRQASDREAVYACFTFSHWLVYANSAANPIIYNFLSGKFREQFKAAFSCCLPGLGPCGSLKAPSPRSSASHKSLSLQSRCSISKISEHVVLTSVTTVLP
- Protocol: Calcium accumulation in cells (FLIPR), antagonism of orexin A, human orexin 1 receptor
- Format: cell-based
- Assay Setup: measured at a concentration of 10 μM of compound; read-out: FLIPR hOx1R % inhibition
Please enter true where inhibition at 10 µM is greater than or equal to 30%, and false where it is lower.

Use these answered entries as a reference point.
Cc1ccc(C)c(CN2C(=O)COCC23CCN(c2cncc(C)n2)CC3)c1 | false
COCc1cccc(-c2ocnc2CN2CCNC3(CCN(c4nc(C)cc(C)n4)CC3)C2=O)c1 | true
Cc1ccnc(N2CCC3(CCN(Cc4c[nH]c5ccccc45)C3=O)C2)c1 (centres unmarked) | true
Cc1cc(C)nc(N2CCC3(CC2)OCCN(Cc2c(-c4ccccc4)nnn2C)C3=O)n1 | false
Cc1cc(C)nc(N2CCC3(CC2)NCCN(Cc2nn(C)cc2-c2cccc(F)c2)C3=O)n1 | false
COc1ccnc(N2CCC3(CCN(Cc4n[nH]c5ccccc45)C3=O)C2)n1 (centres unmarked) | true
N#Cc1ccnc(N2CCC3(CCN(Cc4c[nH]c5ccccc45)C3=O)CC2)c1 | false

Shift focus to the following entry.
**Query** Entry Cc1ccnc(N2CCC3(CC2)NCCN(Cc2nc(C)oc2-c2ccccc2)C3=O)n1 : is its inhibition at 10 µM no less than 30%?
**Result** false

* * *

- Target Desc: human orexin 2 receptor (Homo sapiens)
- Sequence (O43614 1-444): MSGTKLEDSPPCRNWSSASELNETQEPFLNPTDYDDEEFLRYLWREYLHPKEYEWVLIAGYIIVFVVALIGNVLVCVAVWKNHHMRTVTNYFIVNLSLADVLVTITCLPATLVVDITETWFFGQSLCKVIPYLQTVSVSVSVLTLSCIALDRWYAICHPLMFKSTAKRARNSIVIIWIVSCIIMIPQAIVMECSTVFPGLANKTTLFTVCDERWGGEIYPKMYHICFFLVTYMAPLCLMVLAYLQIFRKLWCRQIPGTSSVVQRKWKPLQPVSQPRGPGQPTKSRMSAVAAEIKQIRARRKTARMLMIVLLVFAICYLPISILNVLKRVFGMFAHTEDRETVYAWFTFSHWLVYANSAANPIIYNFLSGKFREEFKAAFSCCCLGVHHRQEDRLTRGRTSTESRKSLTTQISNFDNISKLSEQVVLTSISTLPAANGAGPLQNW
- Protocol: Calcium accumulation in cells (FLIPR), antagonism of orexin A, human orexin 2 receptor
- Assay Setup: calcium accumulation, antagonism of orexin A, Cheng-Prusoff corrected; read-out: FLIPR hOx2R Ki
pKi: −log10 of the molar value.
Quick rule: pKi of at least 7 means TRUE, below that means FALSE.

Example entries and their recorded answers appear below.
Cc1cncc(N2CCC3(CC2)COCC(=O)N3Cc2cccc3[nH]ccc23)n1 [Example 8.14] | FALSE
Cc1ccnc(N2CCC3(CC2)COCC(=O)N3Cc2cccc3[nH]ccc23)n1 [Example 8.19] | FALSE
CCC(=O)c1cccc(-c2cn(C)nc2CN2CCNC3(CCN(c4nc(C)cc(C)n4)CC3)C2=O)c1 [Example 1.70] | TRUE
O=C1N(Cc2c[nH]c3ccccc23)CCC12CCN(c1nc3ccccc3[nH]1)CC2 [Example 3.12] | FALSE
Cc1cc(C)nc(N2CCC3(CC2)OCCN(Cc2ccccc2-c2ncco2)C3=O)n1 [Example 2.9] | FALSE

**Query** // inclusive: pKi at least 7? input: COc1cc(C)nc(N2CCC3(CCCN(Cc4c[nH]c5ccccc45)C3=O)C2)n1 (centres unmarked) [Example 7.1]
**Result** TRUE
